- targetEntity: Beta-secretase 1 (Homo sapiens, UniProt P56817)
- Sequence (P56817 whole entry): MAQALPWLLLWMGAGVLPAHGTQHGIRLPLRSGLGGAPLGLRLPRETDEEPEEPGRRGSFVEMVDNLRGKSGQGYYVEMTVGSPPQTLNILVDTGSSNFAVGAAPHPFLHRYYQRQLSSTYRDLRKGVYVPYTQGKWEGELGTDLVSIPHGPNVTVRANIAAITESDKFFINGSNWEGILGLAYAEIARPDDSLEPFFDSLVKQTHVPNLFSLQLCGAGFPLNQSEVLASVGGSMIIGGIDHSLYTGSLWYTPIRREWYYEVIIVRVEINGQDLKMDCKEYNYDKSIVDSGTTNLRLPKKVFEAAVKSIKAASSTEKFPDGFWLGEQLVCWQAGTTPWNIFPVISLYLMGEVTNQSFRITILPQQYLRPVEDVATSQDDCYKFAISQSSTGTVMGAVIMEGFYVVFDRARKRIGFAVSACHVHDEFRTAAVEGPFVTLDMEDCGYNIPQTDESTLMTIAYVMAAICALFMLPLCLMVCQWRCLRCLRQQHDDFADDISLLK
- assayText: Inhibition of BACE1-mediated amyloid beta (1 to 40) production after 48 hrs by cell based HTRF immunoassay
pIC50: −log10 of the molar value.
measuredQuantity: pIC50

1) CN1C(=O)CC2(N=C1N)c1cc(-c3cc(F)cc(Cl)c3)ccc1OC1CC3(CC[C@@H]12)OCCO3 (stereo partly drawn) :: 5.51
2) NC1=N[C@@]2(CO1)c1cc(-c3cncc(Cl)c3)ccc1OC1OC[C@H](OCC3CC3)C[C@@H]12 (single isomer, unassigned) :: 8.11
3) NC1=N[C@]2(CO1)c1cc(-c3cncc(Cl)c3)ccc1OC1OC[C@H](OCC3CC3)C[C@@H]12 (mixture of isomers) :: 8.05
